Tested on: Staphylococcus aureus Sa2 (MRSA, cystic fibrosis isolate)
Assay: growth reduction vs untreated control (OD550); higher = stronger antibacterial activity
Details: 0.1 mM; 24 h
measure-name: growth reduction (%)
Entry rule: numbers only, all in %.

Example entries and their recorded answers appear below.
Cc1cc(Nc2ncc(Cl)c(Nc3ccccc3S(=O)(=O)C(C)C)n2)c(OC(C)C)cc1C1CCNCC1 [Ceritinib]	100
CC(=O)Oc1cc(C)c(OC(C)=O)c2ccccc12	95.5
CC(=C(CCOC(=O)C(C)C)SSC(CCOC(=O)C(C)C)=C(C)N(C=O)Cc1cnc(C)nc1N)N(C=O)Cc1cnc(C)nc1N (stereo in doubt)	97

With those in mind, consider the next compound.
Quick one: growth reduction for O=C(O)Cc1ccccc1Nc1c(Cl)cccc1Cl [Diclofenac] ?
100

----------
# growth reduction annotations
System: Staphylococcus aureus Sa2 (MRSA, cystic fibrosis isolate)
Experiment: growth reduction vs untreated control (viable cell count); higher = stronger antibacterial activity; extreme values may be limits of the assay
Settings: 0.1 mM; 24 h
Entry rule: numbers only, all in %.

Example entries and their recorded answers appear below.
COc1cc(/C=C/c2ccc(O)cc2)cc(OC)c1	100
C[C@@H]1CCc2ncc(F)cc2[C@H]2CCCN2c2ccn3ncc(c3n2)C(=O)N1	97

Quick one: growth reduction for O=C(NCc1c(F)cc(F)cc1F)c1cn2c(c(O)c1=O)C(=O)N1[C@H]3CC[C@H](C3)O[C@@H]1C2 ?
100

Quick one: growth reduction for C=CC(=O)Nc1cc(Nc2nccc(-c3cn(C)c4ccccc34)n2)c(OC)cc1N(C)CCN(C)C [Osimertinib (dimesylate)] ?
100

Quick one: growth reduction for Cn1c(O)c(C2=c3ccccc3=NC2=O)c2ccccc21 ?
100

----------
# growth reduction annotations
Test system: Staphylococcus aureus Sa2 (MRSA, cystic fibrosis isolate)
Assay: growth reduction vs untreated control (OD550); higher = stronger antibacterial activity
Conditions: 0.1 mM; 24 h
Where a name gives a salt, the structure may show the parent alone.

Example entries and their recorded answers appear below.
Oc1ccc2c(c1)CC[C@H](c1ccccc1)[C@@H]2c1ccc(OCCN2CCCC2)cc1 [Lasofoxifene (Tartrate)]	98.2%
CCCCN(CCCC)C(=O)CN1C[C@H](c2ccc3c(c2)OCO3)[C@@H](C(=O)O)[C@@H]1c1ccc(OC)cc1 [Atrasentan (hydrochloride)]	100%
Cc1c(Cl)c(C)[n+]([O-])c(Cl)c1-c1noc(-c2cc(O)c(O)c([N+](=O)[O-])c2)n1	99.2%

With those in mind, consider the next molecule.
Quick one: growth reduction for COc1cc(NS(C)(=O)=O)ccc1Nc1c2ccccc2nc2ccccc12 [Amsacrine (hydrochloride)] ?
93.4%

----------
Test system: Staphylococcus aureus Sa2 (MRSA, cystic fibrosis isolate)
Assay: growth reduction vs untreated control (viable cell count); higher = stronger antibacterial activity; extreme values may be limits of the assay
Conditions: 0.1 mM; 24 h
Structures can show the parent of a compound that is named as a salt.
measure-name: growth reduction (%)
Entry rule: numbers only, all in %.

O=C(O)Cc1ccccc1Nc1c(Cl)cccc1Cl [Diclofenac (diethylamine)]	100
C=Cc1cc(O)cc2nc(-c3ccc(O)c(F)c3)oc12 [Prinaberel]	100
C/C=C(/C(=C/C)c1ccc(O)cc1)c1ccc(O)cc1 [Dienestrol]	92
CC(C)c1cc(Oc2c(Br)cc(NC(=O)CC(=O)O)cc2Br)ccc1O [Eprotirome]	100
O=C(Nc1ncc(SCCN2CCCC2)s1)[C@]1(c2ccc(S(=O)(=O)C3CC3)cc2)C[C@H]1C1CCCCC1 [Globalagliatin]	100
CCCCCCCC/C=C/CCCCCCCC(=O)OC[C@H]1O[C@@H](n2ccc(N)nc2=O)C(F)(F)[C@@H]1O [Gemcitabine (elaidate)]	100
O=C1[C@H](CC[C@H](O)c2ccc(F)cc2)[C@@H](c2ccc(O)cc2)N1c1ccc(F)cc1 [Ezetimibe]	91
C=CCc1ccc(O)c(-c2cc(CC=C)ccc2O)c1 [Magnolol]	100

Quick one: growth reduction for C=CCNc1c(O)cc2c(O)c1C[C@@H](C)C[C@H](OC)[C@H](O)[C@@H](C)/C=C(\C)[C@H](OC(N)=O)[C@@H](OC)/C=C\C=C(/C)C(=O)N2 [Retaspimycin (Hydrochloride)] ?
100

Quick one: growth reduction for Cc1ccc(C(=O)c2cc(O)c(O)c([N+](=O)[O-])c2)cc1 [Tolcapone] ?
100

Quick one: growth reduction for CC(C)(C)NC(=O)N[C@H](C(=O)N1C[C@H]2[C@@H]([C@H]1C(=O)NC(CC1CCC1)C(=O)C(N)=O)C2(C)C)C(C)(C)C (some centres not stated) [Boceprevir] ?
92
